Entry source: patent US10222381B2

Assay: Fluorescence in co-solvents of water and dimethyl sulfoxide (aggregation-induced emission)
Format: physicochemical
Conditions: water/dimethyl sulfoxide co-solvent
Non-standard residues stand in square brackets, D forms with d. Residues, ends and D or L forms follow the SMILES beside them. ξ: configuration not given here. *: point of attachment. Acetyl(1,8-naphthalimido) = O=C1c2cccc3cccc(c23)C(=O)N1CC(=O)*; ξY = NC(Cc1ccc(O)cc1)C(=O)O
observable: color of observed fluorescence

compound | obsValue
O=C(CN1C(=O)c2cccc3cccc(c23)C1=O)NC(Cc1ccccc1)C(=O)O (stereo not shown) [III-1] | blue violet
O=C(CNC(=O)CNC(=O)CN1C(=O)c2cccc3cccc(c23)C1=O)NCC(=O)NCC(=O)NCC(=O)NC(Cc1ccc(O)cc1)C(=O)O (stereo not shown) [III-30] ({Acetyl(1,8-naphthalimido)}-GGGGG[ξY]-OH) | blue violet
O=C(O)C[C@H](NC(=O)[C@H](CC(=O)O)NC(=O)[C@H](Cc1ccccc1)NC(=O)CN1C(=O)c2cccc3c(N4CCCCC4)ccc(c23)C1=O)C(=O)O [III-23] | green
